PROTOCOL TEXT: yeast display, Sf9 membrane polyspecificity reagent, FACS + sequencing; frameworks hold sequencing errors

RECORD SEQUENCE	polyreactivity (PSR sort gate)
QVQLVESGGGLVQAGGSLRLSCAASGLTFYYYAMGWYRQAPGKEREIVAAISRSGGTTYYADSVKGRFTISRDTAKNTVYLQMNSLKPEDTAVYYCNAQWWRYWPSQVIFDYWGQGTQVTVSS	high polyreactivity
QVQLVESGEGLVQAGGSLRLSCAASGSIFSLNAMGWYRQAPGKERELVAAISGRGGSTYYADSVKGRFTISRDNAKNTVYLQMNSLKPEDTAVYYCAARFSRTFLGYYYWGQGTQVTVSS	high polyreactivity
QVQLVESGGGLVQAGGSLRLSCAGSGSTFPRYPMGWYRQAPGKERELVAAISYSGGRTYYADSVKGRFTISRDYAKNTVYLQMNSLKAEDTAVYYCKKRWRGAGTSYDYWGQGTQGTVSS	high polyreactivity
QVQLVESGGGLVQAGGSLRLSCAASGLIFYPYAMGWYRQAPGKERELVAGISSSGDSTYYADSVKGRFTISRDNAKNTVYLEMNSLKPEDTAVYYCNADGWYFEYWGQGTHVTVSS	low polyreactivity
QVQLVESGGGLVQAGGSLRLSCAASGLTFGWNAMGWYRQAPGKERESVAAISYNGVSTHYADSVKGRFTISRDNAKNTVYLQMNSLKPEDTAVYYCAARALTWPYGGTAPRLYNYWGQGTQVTVSS	low polyreactivity
QVQLVESGGGLVQAGGSLRLSCAASGFTLSKYAKGWYRPAPGKERELVAAITGSGVRTYYADSVKGRFTISRDYAKNSVYLELNSLKPEDTAVYYCATGTKKGRYRDELDCWGHGTQVTVSS	high polyreactivity
QVQLVESGGGLVQAGGSLRLSCADSGITFGLYAMGWYRQAPGKERELVAAISSSGGRTYYADSVKGRFTISRDIAKKTVYLQMYSLKPEDTAVYVCATDTDGFAANRPAGDGDWGQGTQVTVSS	high polyreactivity
QVQLVESGGGLVQAGGSLRLSCAASGSIFIYYAMGWYRQAPGKEREFVADISYSGDSTYYADSVKGRFTISRDNAKNTVYFQMNSLKPEDTAVYYCAADTWYDAGVYPYDYWGQGTQVTVSS	high polyreactivity
QVQLVESGGGLVQAGGSLRLSCAASGRIIYDKAMGWYRQAPGKERELVAAISRSGRTYYADSVKGRFTISRDNAKNTVYLQMNSLKPEDSAVYYCNARTLTVLEFDYWGQGTQVTVSS	low polyreactivity
QVQLVESGGGLVQAGGSLRLSCAASGFTFGSNTMGWYRQAPRKERELVAAITGRGGSTYYADSVKGRFTSSRDNAKNTVYLQMTSLKPEDTAVYYCAARTYPTGASFDYWGQGTQVTVSS	high polyreactivity
QVQLVESGGGLVQAGGSLRLSCAASGSIFPRNAMGWYRQAPGKERELVAAITTTGGITHYADSVKGRFTISRDNAKNTVYLQMNSLKPEDTAVYYCAASNEVPWRFPDDYWGQGTQVTVSA	low polyreactivity
QVQLVVSGGGLVQAGGSLRLSCAASGRTFSIYAMGWYRQAPWKERELVAAISWSGGRTYYADSVKGRFTISRDNAKNTVYLLMNSLKPEDTAVYYCNKDWIYRGYDYWGQGTQVTVSS	high polyreactivity
QVHLVESGGGLVQAGGSLRLSGAASGRIFFSNAMGWYRQAPGKEWELVAAISTSGGSTYYADSVKGRFTISRENAKNTVYLQMNSLKPEDTAVYYCNAVYYTSYSGYHFVYEYDYWGQGTQVTVSS	low polyreactivity

----------
PROTOCOL TEXT: yeast display, Sf9 membrane polyspecificity reagent, FACS + sequencing; frameworks hold sequencing errors
OBSERVABLE: polyreactivity (PSR sort gate)

RECORD SEQUENCE	VALUE REPORTED
QVQLVESGGGLVQAGGSLRLSCAASGGIFGYYAMGWYRPAPGKERELVAAINYSGGSTYYADSVKGRFTISRDNAKNTVYLQMNSLKPEDTAVYYCNAVVRDYTFRYYYWGQGTQVTVSS	low polyreactivity
QVQLVESGGGLVQAGGSLRLSCAASGSTFYAYTMGWYRKAPGKERELVAGISRRGGTTYYADSVKGRFTISRDNAKNTVYLQMNSLKPEYTAVYYCAADKTKPQASEGYYAYYYWGQGTQVTVSS	low polyreactivity
QVQLVESGGGLVQAGGSLRLSCAASGSTFTVNAMGWYRQAPGKERELVAAIRWSGDSTYYADSVKGRFTISRDNAKNTVYLQMNSLKPEDTAVYYCARDLYWGSYNYWGQGTQVTVSS	low polyreactivity
QVQLVESGGGLVQAGGSLRLSCAASGGIFWYNAMGWYRQAPGKERELVAAITWNGGRTYYADSVKGRFTISRDNAKNTVYLQMNSLKPEDTAVYYCAARSPVKRQSRKQYYYWGQGTQVTVSS	high polyreactivity
QVQLVESGGGLVQAGGSLLLSCAASGFTFYGYVMGWYRQAPGKERELVAGITWRGGSTYYADSVKGRFTISRDNAKNTVYLQMNSLKPEDTAVYYCAAKSFRRGTFDYWGQGTQVTVSS	high polyreactivity
QVQLVESGGGLVQAGGSLRLSCAASGTTFVSNAMGWYRQAPGKERELVAAISKSGGSTYYADSVKGRFTISRDNAKNTVYLQMNSLKPEDTAVYYCAKYTAKSFYGQYDYWGQGTQVTVSS	high polyreactivity
QVQLVESAGGLVQAGVILRLSCPASGSTIEYYAMGWYRQAPGKERELVATISIDGRTNYADSVKGRFTISRDNAKNTVYLQMNSLNPEDTAVYYCAARPYWRHRYDYCGQGTQVTVSS	low polyreactivity
QVQRVESGGGLVQAGRSLRLSCAATGITFWVYAMGWYRQAPGKERELVAAISRRGGSTSYADSVKGRFTISRDNAKNTVYLQMNSLKPEDTAVYYCAATTYTHPYGYWGQGTQVTVSS	high polyreactivity
QVQLVESGGGLVQAGGSLRLSCAASGSTFPLYAMGWYRQAPGKERELVAAITTGGGNTYYADSVKGRFTISRDNAKNTVYLQLNSLTPEDTAVYYCAKPYHIGLSGRRTYDYWGQGTQVTVSS	high polyreactivity
QVQLVESVRGLVQAGGSLRLSCASSGSTFYGYTLGWYRQAPGKERELVAAISWSGGSTYYADSVKGRFTISRDNAKNTVYLQMNSLKPEDTAVFYCAARWGYSRRGYRGYDYWGQGTQVTVSS	high polyreactivity
QVQLQESGGGLVQAGGSLRLSCAASGSIFLFYTMGCYRPAPVKEREFVAGITLGTTTYNADSVKGRFTISRDNVKNTVYLQMNSLNPVDSAVYYCAVAVGHYTEFWYWGQGTQVTMSS	high polyreactivity
QVQLQESGGGPVLAGGSLRLSCAASGTIFVPLDMGWYRQAPGKEREFVATIGSGSSTYYADSVKGSFTISRDNVKNTVYLQMNSLKPEDTAVYYCAVSAAEQSRHYYWDQGTQVTVSS	low polyreactivity
QFHHVESGGGLVQAGCSLRLSCGASGLTSAIYVMGLYRQAPGKEREFVADITWNAGSTYYADSVQGRFTISRDNAKNTVYVEMKSLKPEDTAVYYCNAYIVSGFYEYDFWGQGTQVTVSS	high polyreactivity
QLQLVESGGGLVQAGGSLRLSCAASGITFPFYDMGWYRQAPGKEREFVAAISWSAGNTYYADSVKGRFTISRDNAKNTVYLQMNSLKPEDTAVYYCAAYGPSYEEDYWGQGTQVTVSS	high polyreactivity
QVQLVESGGGLVQAGGSLRLSCAASGSTFRNYAMGWYRQAPGKDRELVAAISGSGGRTNYADSVKGRFTISRDNAKTTVYLQMNSLKPEDTAVYYCAASGGRNWWAARNYYWGQGTQVTVSS	low polyreactivity

----------
PROTOCOL TEXT: yeast display, Sf9 membrane polyspecificity reagent, FACS + sequencing; frameworks hold sequencing errors

RECORD SEQUENCE	polyreactivity (PSR sort gate)
QVQLVESGGGLVKAGGSLRLSCAASGLTLPANAMGWYRQAPGKEREFVAAISVGGDTTSYADSVKGRFTISRDNAKNTVYLQMNSLKPEDTAVYYCAADEIHDPRTYRGSAGDYWGQGTQVTVSS	low polyreactivity
QVQLVESGGGLVQAGGSLRLSCAASGSIFIAYGMVWYRQEPGKERELVAAITVSGGNTYYADSVKGRFTISRDNAKNTVYLQMNSLKPEDTAVYYCAADYWYYYGKVLYDYWGQGTQVTVSS	low polyreactivity
QVQHVESGGGLVQAGGSLRLSCAASGSIYISNAMGWYRQAPGKERELVAAITSSGGSTYDADSVKGRFTISRDNAKNTVSLQMNSLKPEDTAVYYCAARPGRNYYYWGQGTQVTVSS	high polyreactivity
QVQLVESGGGLVQAGGSLRLSCAASGSIFEPNAMGWYRQAPGKERELVASITSGGTTYADSVKGRFTISRDNAKNTVYLQMNSLKPEDTAVYYCNARVKAFFDPSQYLYGHDYWGQGTQVTVSS	low polyreactivity
QVQLVESGGGLVQAGGSLRLSCAASGRIFHTYGRRWSRQAPGKEREFVAAITWTGGSTYYADSVKGRFTISRDNAKNTFYLQMNSLKPEDTAVYYCAADYPRDIIGSMDYWGQGTQVTVSW	low polyreactivity
QVQLVESGGGLVQAGGSLRLSCAASGRTFARNAMGWYRQAPGKERELGAAISSSGGSTYYADSVKGRFTISRDNAKNTVYLQMNSLKPEDTAVYYCDARSRHAYGYWGQGTQVTVSS	high polyreactivity
QVQLVESGGGLVQAGGSLRLSCAASGRTFWYYTMGWYRQAPGKERELVASITSGSGTTYYADSVKGRFTISRDNAKNTVYLQMNSLKPEDTAVSSCAAKNTPSFFYYDRYDYWGQGTQVTVSS	low polyreactivity
QVQLVESGGGLVQAGGSLRLSCAASGSTFWRYAMGWYRQAPGKERELVAGITWNGGSTYYADSVKGRFTISRDNAKNTVYLQMNCLIPEDTAVYYCAARRSWGYIYRLGYGMDYWGQGTQVTVSS	high polyreactivity
